Overview of recorded PDI for various compounds
# experiment: LNP size, PDI and zeta potential by Dynamic Light Scattering (Method A)
# Type: physicochemical
# condition notes: LNP formulated with the lipid, DLS
# Method: The synthesized lipids were tested in term of in vitro transfection efficacy and toxicity on HeLa cells. In order to perform the mentioned biological tests, appropriate LNPs had to be formulated from the synthesized lipids. The formulation technique was different in Method A and B. The particle size, polydispersity index (PDI) and zeta potential of resulting LNPs were determined by means of Dynamic Light Scattering technique (DLS). […]
When you answer, write just the number.

Illustrative cases are given below, each with its answer.
CCCCCCCC/C=C\CCCCCCCC(OCCC(C)CCCC(C)CCCC(C)CCCC(C)C)O[Si](C)(C)OCCCCCCN(CCO)CCO (centres unmarked): 0.18
CCCCCCCC/C=C\CCCCCCCC(OCC(CCCCCC)CCCCCCCC)O[Si](C)(C)OCCCCCCN(CCO)CCO (centres unmarked): 0.022
CCCCC/C=C\C/C=C\CCCCCCCCOC(CCCCCN(C)CC(O)CO)O[Si](C)(C)OCCCCCCCC/C=C\C/C=C\CCCCC (centres unmarked): 0.043
CCCCCCCC/C=C\CCCCCCCCOC(=O)C(C)(C)CCC(OCCCCCCCC/C=C\CCCCCCCC)O[Si](C)(C)OCCCCCCN(CCO)CCO (centres unmarked): 0.24

Sure, the documented PDI for C#CCN(C)CCCCCCO[Si](C)(C)OC(CCCCCCC/C=C\C/C=C\CCCCC)OCCCCCCCC/C=C\C/C=C\CCCCC (centres unmarked) is 0.058

Sure, the documented PDI for CCCCC/C=C\C/C=C\CCCCCCCCOC(CCCCCCC/C=C\C/C=C\CCCCC)O[Si](C)(C)OCCCCCCN(C)CCCCO (centres unmarked) is 0.041

Sure, the documented PDI for CCCCC/C=C\C/C=C\CCCCCCCCOC(CCCCCCC/C=C\C/C=C\CCCCC)O[Si](C)(C)OCCCCCCN(C)Cc1cn(C2[C@H](O)O[C@H](CO)[C@@H](O)[C@@H]2O)nn1 (some centres unmarked) is 0.081

Sure, the documented PDI for CCCCC/C=C\C/C=C\CCCCCCCCOC(CCCCCCC/C=C\C/C=C\CCCCC)O[Si](C)(C)OCCCCCCN(C)C (centres unmarked) is 0.09

====

# experiment: Encapsulation efficiency of loaded LNPs, RiboGreen RNA assay (Method A)
# Assay type: physicochemical
# condition notes: encapsulation efficiency of mRNA-loaded LNP, Method A, RiboGreen
# Description: The synthesized lipids were tested in term of in vitro transfection efficacy and toxicity on HeLa cells. In order to perform the mentioned biological tests, appropriate LNPs had to be formulated from the synthesized lipids. The formulation technique was different in Method A and B. The particle size, polydispersity index (PDI) and zeta potential of resulting LNPs were determined by means of Dynamic Light Scattering technique (DLS). […]
measurement type: EE (%)
The reply should contain only the number, in %.

CCCCCCCC/C=C\CCCCCCCCOC(=O)C(C)(C)CC(OCCCCCCCC/C=C\CCCCCCCC)O[Si](C)(C)OCCCCCCN1CCCCC1 (centres unmarked) [Example 87]: 89
CCCCC/C=C\C/C=C\CCCCCCCCOC(CCCCCCC/C=C\C/C=C\CCCCC)O[Si](C)(C)OCCCCCCN1CCCCC1 (centres unmarked) [Example 57]: 87
CCCCC/C=C\C/C=C\CCCCCCCCOC(CCCCCCC/C=C\C/C=C\CCCCC)O[Si](C)(C)OCCCCCCN(C)CCO (centres unmarked) [Example 56]: 85
CCCCCCCC/C=C\CCCCCCCCOC(=O)C(C)(C)CC(OCCCCCCCC/C=C\CCCCCCCC)O[Si](C)(C)OCCCCCCN(C)CCCCO (centres unmarked) [Example 91]: 88
CCCCC/C=C\C/C=C\CCCCCCCCOC(CCCCCCC/C=C\C/C=C\CCCCC)O[Si](C)(C)OCCCCCCN(CCCCO)CCCCO (centres unmarked) [Example 62]: 84

Sure, the documented EE (%) for CCCCCCCC/C=C\CCCCCCCC(OCCC(C)CCCC(C)CCCC(C)CCCC(C)C)O[Si](C)(C)OCCCCCCN(CCO)CCO (centres unmarked) [Example 75] is 89

Sure, the documented EE (%) for CCCCCCCCCCCOC(=O)CCCCCN(CCO)CCCCCCCC(=O)OC(CCCCCCCC)CCCCCCCC [SM-102, reference compound] is 88

Sure, the documented EE (%) for CCCCC/C=C\C/C=C\CCCCCCCC(OCCCCCCCCCCCCCCCC)O[Si](C)(C)OCCCCCCN(CCO)CCO (centres unmarked) [Example 44] is 82

====

# Test system: HeLa cells
# experiment: Transfection efficiency with Luciferase (SecNLuc) mRNA, Nano-Glo assay (Method A)
# Format: cell-based
# condition notes: Luc mRNA, 10 ng mRNA/well, 24 h, luminescence
Definition: the class of an entry is the range in b0 (below 3000), b1 (3000 to below 200000), b2 (200000 or more) that contains its Transfection 10 ng mRNA.

The following compounds have reported results that may help.
CCCCCCCC/C=C\CCCCCCCCOC(=O)C(C)(C)CC(OCCCCCCCC/C=C\CCCCCCCC)O[Si](C)(C)OCCCCCCN(C)CC(O)CO (centres unmarked): b1
CCCCC/C=C\C/C=C\CCCCCCCCOC(CCCCCCC/C=C\C/C=C\CCCCC)O[Si](C)(C)OCCCCCCN(C)CCCCO (centres unmarked): b1

**Query** Category lookup for the compound C#CCN(C)CCCCCCO[Si](C)(C)OC(CCCCCCC/C=C\C/C=C\CCCCC)OCCCCCCCC/C=C\C/C=C\CCCCC (centres unmarked)
**Result** b1

**Query** Category lookup for the compound CCCCC/C=C\C/C=C\CCCCCCCCOC(CCCCCN(CCO)CCO)O[Si](C)(C)OCCCCCCCC/C=C\C/C=C\CCCCC (centres unmarked)
**Result** b1

**Query** Category lookup for the compound CCCCC/C=C\C/C=C\CCCCCCCCOC(CCCCCCC/C=C\C/C=C\CCCCC)O[Si](C)(C)OCCCCCCN(C)C (centres unmarked)
**Result** b0

====

# Test system: HepG2 cell line
# experiment: In vitro toxicity study on HepG2 cell line (resazurin, viability and IC50)
# Assay type: cell-based, human
# condition notes: HepG2 cells, 400 μM lipid, 48 h post-treatment, resazurin, relative to ethanol vehicle controls
Output yes for Viability (%) at different lipid concentrations, mean not less than 70%; output no otherwise.

The following compounds have reported results that may help.
CCCCCCCC/C=C\CCCCCCCCOC(=O)C(C)(C)CC(OCCCCCCCC/C=C\CCCCCCCC)O[Si](C)(C)OCCCCCCN1CCCCC1 (stereo not drawn) [Example 87]: yes
CCCCCCCC/C=C\CCCCCCCC(OCCCCCCCCCCCC1CCCCC1)O[Si](C)(C)OCCCCCCN(CCO)CCO (stereo not drawn) [Example 74]: yes
CCCCCCCCO[Si](C)(C)O[Si](C)(C)OC(CCCCCCC)OCCCCCCN(C)CCN(C)CCN(C)CCCCCCOC(CCCCCCC)O[Si](C)(C)O[Si](C)(C)OCCCCCCCC (stereo not drawn) [Example 83]: no
CCCCCCCCC(CCCCCC)C(=O)OCCCCCCN(CCCCO)CCCCCCOC(=O)C(CCCCCC)CCCCCCCC (stereo not drawn) [ALC-0315, reference compound]: no
CCCCCCCC/C=C\CCCCCCCCOC(=O)C(C)(C)CC(OCCCCCCCC/C=C\CCCCCCCC)O[Si](C)(C)OCCCCCCN(C)CCO (stereo not drawn) [Example 93]: yes

Here is another compound to look at.
**Query** Identify whether the reported Viability (%) at different lipid concentrations, mean of the following compound is 70% or greater: CCCCC/C=C\C/C=C\CCCCCCCCOC(CCCCCCC/C=C\C/C=C\CCCCC)O[Si](C)(C)OCCCCCCN1CCCCC1 (stereo not drawn) [Example 57]
**Result** no

====

# System: HepG2 cell line
# experiment: In vitro toxicity study on HepG2 cell line (resazurin, viability and IC50)
# Assay type: cell-based, human
# condition notes: HepG2 cells, 100 μM lipid, 48 h post-treatment, resazurin, relative to ethanol vehicle controls
measurement type: Viability (%) at different lipid concentrations, mean
Please answer in the form of a number followed by its unit of measurement.

CCCCCCCCC(CCCCCC)C(=O)OCCCCCCN(CCCCO)CCCCCCOC(=O)C(CCCCCC)CCCCCCCC (stereo not drawn) [ALC-0315, reference compound]: 84.2%

Sure, the documented Viability (%) at different lipid concentrations, mean for CCCCCCCC/C=C\CCCCCCCC(OCC(CCCCCC)CCCCCCCC)O[Si](C)(C)OCCCCCCN(CCO)CCO (stereo not drawn) [Example 50] is 96.0%

Sure, the documented Viability (%) at different lipid concentrations, mean for CCCCC/C=C\C/C=C\CCCCCCCCOC(CCCCCCC/C=C\C/C=C\CCCCC)O[Si](C)(C)OCCCCCCN(CCO)CCO (stereo not drawn) [Example 48] is 99.6%

Sure, the documented Viability (%) at different lipid concentrations, mean for CCCCCCCC/C=C\CCCCCCCCOC(=O)C(C)(C)CC(OCCCCCCCC/C=C\CCCCCCCC)O[Si](C)(C)OCCCCCCN(C)CCO (stereo not drawn) [Example 93] is 111.6%

Sure, the documented Viability (%) at different lipid concentrations, mean for CCCCCCCC/C=C\CCCCCCCCOC(=O)C(C)(C)CC(OCCCCCCCC/C=C\CCCCCCCC)O[Si](C)(C)OCCCCCCN1CCOCC1 (stereo not drawn) [Example 85] is 101.5%

Sure, the documented Viability (%) at different lipid concentrations, mean for CCCCCCCCCCCCCCCCOC(CCCCCCCCCCCCCCC)O[Si](C)(C)OCCCCCCN(CCO)CCO (stereo not drawn) [Example 49] is 106.4%
